src = patent US20220009920A1

- procedure_details: Plasma and total brain concentrations at 1 h post single oral administration to female C57BL/6 mice
- Assay type: in vivo
- condition_context: mouse, brain, 10 mg/kg oral gavage, read-out: Mean [brain]
This section presents compounds with their documented concentration at 1 h values.
Field: numeric (ng/g). Do not append units.

Observe how each entry below is paired with its result.
INSERT INTO measurements (compound, assay_endpoint, value_reported) VALUES
  ('C=CC(=O)N1CCC[C@@H](c2c(F)cc(C(N)=O)c3[nH]c4c(c23)CCC4)C1', 'concentration at 1 h', 72),
  ('CC#CC(=O)N[C@H]1CCCN(c2c(F)cc(C(N)=O)c3[nH]c(C)c(C)c23)C1 [Branebrutinib, reference compound]', 'concentration at 1 h', 15),
  ('C=CC(=O)N1CCc2c(cccc2-c2ccc(C(N)=O)c3[nH]c4c(c23)CC2(CC4)CC2)C1', 'concentration at 1 h', 43);

Now for a further compound.
Return concentration at 1 h for the following compound: C=CC(=O)N1CCCC(c2c(F)cc(C(N)=O)c3[nH]c4c(c23)CCCCC4)C1 (single isomer, unassigned)
16

---

Quick record of pIC50 values for BTK (Homo sapiens, UniProt Q06187).
pIC50: −log10 of the molar value.

// known answers, use as guide
INSERT INTO measurements (molecule_smiles, system, value_reported) VALUES
  ('CC#CC(=O)N[C@H]1C[C@H](F)CN(c2c(F)cc(C(N)=O)c3[nH]c4c(c23)CCC4)C1', 'BTK (Homo sapiens, UniProt Q06187)', '> 8.00'),
  ('C=CC(=O)N1CCC=C(c2ccc(C(N)=O)c3[nH]c4c(c23)CSCC4)C1', 'BTK (Homo sapiens, UniProt Q06187)', '> 8.00');

Shift focus to the following entry.
Provide pIC50 value for the following compound: `C=CC(=O)N1CCC[C@H](c2c(F)cc(C(N)=O)c3[nH]c4c(c23)CCC4)C1`
> 8.00

---

Catalogue of compounds with associated Kp at 1 h
- procedure_details: Plasma and total brain concentrations at 1 h post single oral administration to female C57BL/6 mice
- Format: in vivo
- condition_context: mouse, brain/plasma, 10 mg/kg oral gavage, read-out: brain to plasma ratio
- Protocol: The appropriate amount of test article was dissolved 10% dimethylacetamide (DMA)/90% (20% hydroxypropyl-β-cyclodextrin (HP-B-CD) w/v in water to obtain a final concentration of 1 mg/mL for oral dosing. Sonication, vortex, and homogenization was used as needed. Three female C57BL/6 mice aged 7-9 weeks (20-30 grams) were dosed by oral gavage 10 mg/kg solution of the test article. […]
Please give only the number in your answer, with no unit.

Use the examples below as a reference point.
INSERT INTO assay_data (compound, value_reported) VALUES
  ('C=CC(=O)N1CCc2c(cccc2-c2ccc(C(N)=O)c3[nH]c4c(c23)CC2(CC4)CC2)C1', 0.39),
  ('C=CC(=O)N1CCCC(c2c(F)cc(C(N)=O)c3[nH]c4c(c23)CCCCC4)C1 (single isomer, unassigned)', 0.4),
  ('C=CC(=O)N1CCC[C@@H](n2nc(-c3ccc(Oc4ccccc4)cc3)c3c(N)ncnc32)C1 [Ibrutinib, reference compound]', 0.001),
  ('C=CC(=O)N1CCC[C@@H](c2c(F)cc(C(N)=O)c3[nH]c4c(c23)CC2(CC4)CC2)C1', 0.24),
  ('C=CC(=O)N1CCC(CNc2ncnc(N)c2-c2ccc(Oc3ccccc3)cc2)CC1 [Evobrutinib, reference compound]', 0.06),
  ('C=CC(=O)N1CCC[C@@H](c2c(F)cc(C(N)=O)c3[nH]c4c(c23)CCC4)C1', 0.37);

Next compound, please.
Input CC#CC(=O)N[C@H]1CCCN(c2c(F)cc(C(N)=O)c3[nH]c(C)c(C)c23)C1 [Branebrutinib, reference compound] , output reported Kp at 1 h.
0.002
